# Experimental Target: Retinoic acid receptor gamma (Homo sapiens)
# Sequence (P13631 whole entry): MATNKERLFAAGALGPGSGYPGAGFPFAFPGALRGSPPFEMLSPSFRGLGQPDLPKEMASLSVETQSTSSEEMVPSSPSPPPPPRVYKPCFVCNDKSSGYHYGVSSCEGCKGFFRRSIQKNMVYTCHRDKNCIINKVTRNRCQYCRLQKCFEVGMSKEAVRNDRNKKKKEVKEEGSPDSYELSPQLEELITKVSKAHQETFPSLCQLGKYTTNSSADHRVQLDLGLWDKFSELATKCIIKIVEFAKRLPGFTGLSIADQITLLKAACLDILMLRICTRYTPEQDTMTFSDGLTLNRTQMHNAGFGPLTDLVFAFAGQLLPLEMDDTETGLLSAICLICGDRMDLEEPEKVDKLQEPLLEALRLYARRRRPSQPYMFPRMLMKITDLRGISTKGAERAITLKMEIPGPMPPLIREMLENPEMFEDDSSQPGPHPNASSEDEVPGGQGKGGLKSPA
Some compounds, each annotated with its measured Ki.

>  <Structure Smiles String>
CCCCOc1c(\C(C)=C/C=C/C(C)=C/C(=O)O)cc(C(C)(C)C)cc1C(C)(C)C

>  <Ki>
> 10 µM

$$$$
>  <Structure Smiles String>
CC(/C=C/C(F)=C(/C)c1cc(C(C)(C)C)cc(C(C)(C)C)c1OCC(F)F)=C\C(=O)O

>  <Ki>
> 10 µM

$$$$

For the next question, use this compound.
Ki in this record for CCCCOc1c(\C(C)=C/C=C/C(=C/C(=O)O)C(F)(F)F)cc(C(C)(C)C)cc1C(C)(C)C : > 10 µM

----------
Some compounds, each annotated with its measured Synergy.
# Species on record: Homo sapiens
# Experiment Notes: Synergistic activation of retinoid acid receptor (RAR) transcriptional activation at 3 nM TTNPB
# Type: functional
Answer field: number only, no words.

>  <Structure Smiles String>
CCOc1c(\C(C)=C/C=C/C(C)=C/C(=O)O)cc(C(C)(C)C)cc1C(C)(C)C

>  <Number>
2

$$$$
>  <Structure Smiles String>
C/C(=C/C=C(F)/C(C)=C/C(=O)O)c1cc(C(C)(C)C)cc(C(C)(C)C)c1OCC(F)F

>  <Number>
2.5

$$$$
>  <Structure Smiles String>
CCCCOc1c(\C(C)=C/C=C/C(=C/C(=O)O)C(F)(F)F)cc(C(C)(C)C)cc1C(C)(C)C

>  <Number>
1.3

$$$$
>  <Structure Smiles String>
C/C(=C/C=C/C(C)=C/C(=O)O)c1cc(C(C)(C)C)cc(C(C)(C)C)c1OCC(F)F

>  <Number>
1.4

$$$$
>  <Structure Smiles String>
CC(/C=C/C(F)=C(/C)c1cc(C(C)(C)C)cc(C(C)(C)C)c1OCC(F)F)=C\C(=O)O

>  <Number>
1.8

$$$$
>  <Structure Smiles String>
C/C(=C/C(F)=C/C(C)=C/C(=O)O)c1cc(C(C)(C)C)cc(C(C)(C)C)c1OCC(F)F

>  <Number>
8.9

$$$$

Synergy in this record for C/C(=C/C=C/C(C)=C(\F)C(=O)O)c1cc(C(C)(C)C)cc(C(C)(C)C)c1OCC(F)F : 1.5

Synergy in this record for CCCCOc1c(\C(C)=C/C=C/C(C)=C/C(=O)O)cc(C(C)(C)C)cc1C(C)(C)C : 1.2

Synergy in this record for CCOc1c(\C(=C/C=C/C(C)=C/C(=O)O)C(F)(F)F)cc(C(C)(C)C)cc1C(C)(C)C : 7

----------
# Experimental Target: Retinoic acid receptor RXR-alpha (Homo sapiens)
# Sequence (P19793 whole entry): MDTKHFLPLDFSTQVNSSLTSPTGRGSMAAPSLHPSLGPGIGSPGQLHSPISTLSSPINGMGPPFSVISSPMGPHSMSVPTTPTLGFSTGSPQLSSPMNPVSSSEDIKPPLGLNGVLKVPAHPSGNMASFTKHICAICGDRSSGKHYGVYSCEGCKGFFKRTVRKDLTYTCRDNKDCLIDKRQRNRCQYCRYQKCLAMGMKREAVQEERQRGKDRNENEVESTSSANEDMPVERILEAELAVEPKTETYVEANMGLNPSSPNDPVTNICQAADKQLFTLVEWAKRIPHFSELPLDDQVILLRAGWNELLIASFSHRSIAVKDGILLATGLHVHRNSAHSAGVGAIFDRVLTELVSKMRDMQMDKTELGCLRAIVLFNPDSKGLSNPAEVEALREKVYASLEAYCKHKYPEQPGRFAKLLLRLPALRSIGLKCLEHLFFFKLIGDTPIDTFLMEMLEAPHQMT
# Experiment Notes: Antagonist activity against Retinoic acid receptor RXR-alpha expressed in CV-1 cell transcriptional activation assay
# Type: functional, cell-based
pEC50: −log10 of the molar value.
Measurement Name: pEC50

>  <Structure Smiles String>
CCCCOc1c(\C(C)=C/C=C/C(=C/C(=O)O)C(F)(F)F)cc(C(C)(C)C)cc1C(C)(C)C

>  <pEC50>
6.09

$$$$

[A] CCOc1c(\C(=C/C=C/C(C)=C/C(=O)O)C(F)(F)F)cc(C(C)(C)C)cc1C(C)(C)C
[B] CC(/C=C/C(F)=C(/C)c1cc(C(C)(C)C)cc(C(C)(C)C)c1OCC(F)F)=C\C(=O)O
Which record would sort first by descending pEC50, A or B ? Write down the label attached to your selection. B
(B: 8.17, A: 7.42)

----------
# Experimental Target: RXR alpha/PPAR gamma (Homo sapiens, UniProt P19793)
# Sequence (P37231 whole entry, one chain of several): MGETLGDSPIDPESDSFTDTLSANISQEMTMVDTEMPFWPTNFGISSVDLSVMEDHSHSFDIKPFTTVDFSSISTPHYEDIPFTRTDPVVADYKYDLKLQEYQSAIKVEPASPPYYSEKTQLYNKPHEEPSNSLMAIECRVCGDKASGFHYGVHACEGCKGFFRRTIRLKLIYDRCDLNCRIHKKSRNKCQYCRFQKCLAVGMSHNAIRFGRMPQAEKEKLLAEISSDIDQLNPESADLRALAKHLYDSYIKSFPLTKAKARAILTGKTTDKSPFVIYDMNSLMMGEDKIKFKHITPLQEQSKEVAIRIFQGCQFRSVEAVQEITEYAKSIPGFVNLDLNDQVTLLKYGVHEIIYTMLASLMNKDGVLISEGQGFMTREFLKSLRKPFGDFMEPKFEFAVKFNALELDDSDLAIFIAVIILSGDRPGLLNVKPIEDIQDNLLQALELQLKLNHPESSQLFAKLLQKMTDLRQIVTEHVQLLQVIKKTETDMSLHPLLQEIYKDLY
# Experiment Notes: Synergistic activation of BRL-49653 mediated PPAR gamma and retinoid X receptor alpha expressed in CV-1 cell transcriptional activation assay
Measurement Name: EC50 (nM)

>  <Structure Smiles String>
CCOc1c(\C(=C/C=C/C(C)=C/C(=O)O)C(F)(F)F)cc(C(C)(C)C)cc1C(C)(C)C

>  <Units>
nM

>  <EC50>
167

$$$$
>  <Structure Smiles String>
C/C(=C/C=C/C(C)=C(\F)C(=O)O)c1cc(C(C)(C)C)cc(C(C)(C)C)c1OCC(F)F

>  <Units>
nM

>  <EC50>
2.7

$$$$
>  <Structure Smiles String>
CC(/C=C/C(F)=C(/C)c1cc(C(C)(C)C)cc(C(C)(C)C)c1OCC(F)F)=C\C(=O)O

>  <Units>
nM

>  <EC50>
6.4

$$$$

[a] CCCCOc1c(\C(C)=C/C=C/C(C)=C/C(=O)O)cc(C(C)(C)C)cc1C(C)(C)C
[b] C/C(=C/C(F)=C/C(C)=C/C(=O)O)c1cc(C(C)(C)C)cc(C(C)(C)C)c1OCC(F)F
Which record would sort first by descending EC50, a or b ? Write down the label attached to your selection. b

[a] CCCCOc1c(\C(C)=C/C=C/C(=C/C(=O)O)C(F)(F)F)cc(C(C)(C)C)cc1C(C)(C)C
[b] C/C(=C/C=C(F)/C(C)=C/C(=O)O)c1cc(C(C)(C)C)cc(C(C)(C)C)c1OCC(F)F
Of a and b , which carries the smaller reported EC50 figure? Write down the label attached to your selection. b

----------
# Experimental Target: Retinoic acid receptor RXR-alpha (Homo sapiens)
# Experiment Notes: Agonist activity against Retinoic acid receptor RXR-alpha expressed in CV-1 cell transcriptional activation assay
# Type: functional, cell-based
Measurement Name: pEC50
Field pEC50 (float): negative decimal logarithm of the concentration in molar.

pEC50 in this record for C/C(=C/C(F)=C/C(C)=C/C(=O)O)c1cc(C(C)(C)C)cc(C(C)(C)C)c1OCC(F)F : 6.59

----------
# Experiment Notes: Tmax after oral administration at 30 mg/kg in ICR mouse
# Assay type: ADME, organism-based
# Parameters: dose 30 mg/kg, route oral
# Conditions: in vivo
Measurement Name: Tmax (h)

[I] C/C(=C/C=C/C(C)=C/C(=O)O)c1cc(C(C)(C)C)cc(C(C)(C)C)c1OCC(F)F
[II] CC(/C=C/C(F)=C(/C)c1cc(C(C)(C)C)cc(C(C)(C)C)c1OCC(F)F)=C\C(=O)O
Which record would sort first by descending Tmax, I or II ? Write down the label attached to your selection. II
(II: 3 h, I: 1 h)

----------
# Experiment Notes: AUC (0-6 hr) after oral administration at 30 mg/kg in ICR mouse
# Type: ADME, organism-based
# Parameters: time < 6 hr, route oral, dose 30 mg/kg
# Conditions: plasma
Measurement Name: AUC(0-t) at 6 h (ng·h/mL)

[P] CC(/C=C/C(F)=C(/C)c1cc(C(C)(C)C)cc(C(C)(C)C)c1OCC(F)F)=C\C(=O)O
[Q] C/C(=C/C=C/C(C)=C/C(=O)O)c1cc(C(C)(C)C)cc(C(C)(C)C)c1OCC(F)F
Of P and Q , which carries the smaller reported AUC(0-t) at 6 h figure? Write down the label attached to your selection. Q

----------
# Experimental Target: Retinoic acid receptor RXR-alpha (Homo sapiens, UniProt P19793)
# Experiment Notes: Antagonist activity against Retinoic acid receptor RXR-alpha expressed in CV-1 cell transcriptional activation assay
# Format: functional, cell-based
Measurement Name: EC50 (nM)

Examples with answers:
>  <Structure Smiles String>
C/C(=C/C=C(F)/C(C)=C/C(=O)O)c1cc(C(C)(C)C)cc(C(C)(C)C)c1OCC(F)F

>  <EC50, nM>
4840

$$$$
>  <Structure Smiles String>
CCCCOc1c(\C(C)=C/C=C/C(C)=C/C(=O)O)cc(C(C)(C)C)cc1C(C)(C)C

>  <EC50, nM>
3.3

$$$$
>  <Structure Smiles String>
CCOc1c(\C(C)=C/C=C/C(C)=C/C(=O)O)cc(C(C)(C)C)cc1C(C)(C)C

>  <EC50, nM>
6.4

$$$$

[a] C/C(=C/C(F)=C/C(C)=C/C(=O)O)c1cc(C(C)(C)C)cc(C(C)(C)C)c1OCC(F)F
[b] C/C(=C/C=C/C(C)=C(\F)C(=O)O)c1cc(C(C)(C)C)cc(C(C)(C)C)c1OCC(F)F
Of a and b , which carries the smaller reported EC50 figure? Write down the label attached to your selection. b

// provenance: ChEMBL document CHEMBL1136229
